All values here come from the NIST ThermoML archive (doi:10.1016/j.jct.2017.07.018).

MEASUREMENT PARAMETERS: 320 K; Liquid; Gas chromatography
ASSAY METRIC: vapor or sublimation pressure (kPa)
Report the figure in kPa without appending any unit label.

The following compounds have reported results that may help.
Prompt: Consider the compound shown here: C[C@@H]1CC[C@H]2C(C)(C)[C@H]3C[C@@]12CC[C@@]3(C)O [(+)-cedrol] What is its recorded vapor or sublimation pressure?
Completion: 0.00084

Prompt: Note, next up: C=CC(C)(O)CC/C=C(/C)CCC=C(C)C (centres undefined) [(Z)-3,7,11-trimethyldodeca-1,6,10-trien-3-ol]
Completion: 0.001

Prompt: Note, next up: `OC12CC3CC(CC(C3)C1)C2`
Completion: 0.015

Next:
Prompt: Consider the compound shown here: C=CC(C)(O)CC/C=C(\C)CCC=C(C)C (centres undefined) [(E)-3,7,11-trimethyldodeca-1,6,10-trien-3-ol] What is its recorded vapor or sublimation pressure?
Completion: 0.00074

* * *

MEASUREMENT PARAMETERS: 430 K; Liquid; Gas chromatography
Listed next: entries and their corresponding vapor or sublimation pressure.
Report the figure in kPa without appending any unit label.

The following compounds have reported results that may help.
Prompt: Consider the compound shown here: C=CC(C)(O)CC/C=C(\C)CCC=C(C)C (centres undefined) [(E)-3,7,11-trimethyldodeca-1,6,10-trien-3-ol] What is its recorded vapor or sublimation pressure?
Completion: 1.8

Prompt: Note, next up: C[C@@H]1CC[C@H]2C(C)(C)[C@H]3C[C@@]12CC[C@@]3(C)O [(+)-cedrol]
Completion: 1.4

Next:
Prompt: Consider the compound shown here: C=CC(C)(O)CC/C=C(/C)CCC=C(C)C (centres undefined) [(Z)-3,7,11-trimethyldodeca-1,6,10-trien-3-ol] What is its recorded vapor or sublimation pressure?
Completion: 2.1

Prompt: Note, next up: OC12CC3CC(CC(C3)C1)C2 [1-adamantanol]
Completion: 7.9

* * *

MEASUREMENT PARAMETERS: 380 K; Liquid; Gas chromatography
Listed next: entries and their corresponding vapor or sublimation pressure.
Report the figure in kPa without appending any unit label.

Prompt: Consider the compound shown here: `OC12CC3CC(CC(C3)C1)C2` What is its recorded vapor or sublimation pressure?
Completion: 0.88

Prompt: Note, next up: C=CC(C)(O)CC/C=C(\C)CCC=C(C)C (centres undefined) [(E)-3,7,11-trimethyldodeca-1,6,10-trien-3-ol]
Completion: 0.115

Prompt: Note, next up: C[C@@H]1CC[C@H]2C(C)(C)[C@H]3C[C@@]12CC[C@@]3(C)O [(+)-cedrol]
Completion: 0.1

Next:
Prompt: Consider the compound shown here: C=CC(C)(O)CC/C=C(/C)CCC=C(C)C (centres undefined) [(Z)-3,7,11-trimethyldodeca-1,6,10-trien-3-ol] What is its recorded vapor or sublimation pressure?
Completion: 0.14

* * *

MEASUREMENT PARAMETERS: 340 K; Liquid; Gas chromatography
Listed next: entries and their corresponding vapor or sublimation pressure.
Report the figure in kPa without appending any unit label.

Prompt: Consider the compound shown here: C=CC(C)(O)CC/C=C(/C)CCC=C(C)C (centres undefined) [(Z)-3,7,11-trimethyldodeca-1,6,10-trien-3-ol] What is its recorded vapor or sublimation pressure?
Completion: 0.0067

Prompt: Note, next up: C[C@@H]1CC[C@H]2C(C)(C)[C@H]3C[C@@]12CC[C@@]3(C)O [(+)-cedrol]
Completion: 0.0055

Next:
Prompt: Consider the compound shown here: OC12CC3CC(CC(C3)C1)C2 [1-adamantanol] What is its recorded vapor or sublimation pressure?
Completion: 0.074

Prompt: Note, next up: C=CC(C)(O)CC/C=C(\C)CCC=C(C)C (centres undefined) [(E)-3,7,11-trimethyldodeca-1,6,10-trien-3-ol]
Completion: 0.0053
